Where do the numbers come from? From patent US20150344583A1.

# SYSTEM TESTED: T1, cynomolgus (Macaca fascicularis) BCMA on cells (cynomolgus (Macaca fascicularis), UniProt Q02223 1-184 (human entry))
# T1 construct: also called cyno BCMA; cynomolgus BCMA
# T1 sequence (Q02223 other isoform, or with tags, fused parts or gaps): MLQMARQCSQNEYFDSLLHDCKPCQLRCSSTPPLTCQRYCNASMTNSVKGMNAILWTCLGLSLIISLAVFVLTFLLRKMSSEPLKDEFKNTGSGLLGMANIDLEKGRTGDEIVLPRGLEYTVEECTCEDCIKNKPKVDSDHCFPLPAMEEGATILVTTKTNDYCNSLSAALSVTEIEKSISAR
# RUN DESCRIPTION: CynoBCMA O/N FACS
ENDPOINT NAME: MFI (MFI)
Express it in MFI; write the number only.

| BINDER | MFI (MFI) |
| --- | --- |
| 29C12 (antibody, V domains shown, IgG2 or IgG4 as purified from hybridoma (29C12.1); later converted to human IgG1; an engineered version may be meant there; also called 29C12.1; Ab-8) VH: EVQLLESGGALVQPGGSLRLSCAASGFTFSSYAMNWVRQAPGKGLEWVSAISVGGDTYYADSVKGRFTISRDNSKNTLYLQMNSLRAEDTAVYYCAKDQVTMVRGVWYYYGLDVWGQGTTVTVSS VL: DIVMIQSPLSLPVTPGEPASISCRSSQSLLHSNGNNYLDWYLQKPGQSPHLLISLGSNRTSGVPDRFSGSGSGTDFTLKISRVEAEDVGVYYCMQALQPPRRFGQGTKLEIKR | 110 |
| 37B2 (antibody, V domains shown, IgG2 or IgG4, purified from hybridoma supernatant; also called 37B2.1; Ab-16) VH: EVQLLESGGALVQPGGSLRLSCAASGFTFSNYAMNWVRQAPGKGLEWVSAISVGGDTYYADSVKGRFTISRDNSKNTLYLHVNSLSAEDSAVYYCAKDQVTLVRGVWYYYGLDVWGQGTTVTVSS VL: VIVLIQSPLSLPVTPGEPASISCRSSQSLLHSNGNNYLDWYLQKPGQSPHLLISLGSNRTSGVPDRFSGSGSGTDFTLKISRVEAEDVGFYYCMQALQPPRRFGQGTKLEIKR | 104 |
| 32B5 (antibody, V domains shown, IgG2 or IgG4 as purified from hybridoma (32B5.1); later converted to human IgG1; an engineered version may be meant there; also called 32B5.1; Ab-10) VH: EVQLLESGGALVQPGGSLRLSCAASGFTFSSYAMNWVRQAPGKGLEWVSAISVGGDTYYADSVKGRFTISRDNSKNTLYLHVNSLSAEDSAVYYCAKDQVTLVRGVWYYYGLDVWGQGTTVTVSS VL: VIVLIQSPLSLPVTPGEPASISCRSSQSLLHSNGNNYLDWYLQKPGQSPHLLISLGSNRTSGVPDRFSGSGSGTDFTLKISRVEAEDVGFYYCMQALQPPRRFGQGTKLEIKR | 108 |

Lab note: next binder to report on.
For the binder 35D2 (antibody, V domains shown, IgG2 or IgG4, purified from hybridoma supernatant; also called 35D2.1; Ab-15) VH: EVQLLESGGALVQPGGSLRLSCAASGFTFSSYAMNWVRQAPGKGLEWVSAISVGGGTYYADSVKGRFTISRDNSKNTLYLHVNSLRAEDTAVYYCAKDQVTMVRGVWYYYGLDVWGQGTTVTVSS VL: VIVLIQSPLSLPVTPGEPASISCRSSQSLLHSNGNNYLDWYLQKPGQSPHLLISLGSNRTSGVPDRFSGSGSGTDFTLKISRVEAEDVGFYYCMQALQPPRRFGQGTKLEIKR , report MFI.
152
